# Measured target: OsWRKY34 (Oryza sativa, UniProt Q0JBA9 1-250)
# Sequence (Q0JBA9 entry or part of it): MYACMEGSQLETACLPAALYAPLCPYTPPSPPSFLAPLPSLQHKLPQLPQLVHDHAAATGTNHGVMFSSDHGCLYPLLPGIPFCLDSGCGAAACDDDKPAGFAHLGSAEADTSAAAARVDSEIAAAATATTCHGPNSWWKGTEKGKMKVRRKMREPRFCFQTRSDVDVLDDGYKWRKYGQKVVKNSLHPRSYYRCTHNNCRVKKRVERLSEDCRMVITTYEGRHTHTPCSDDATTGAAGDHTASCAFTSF
# Test method notes: protein-binding microarray (RPBM); PBS, 2% BSA, 51.3 ng/ul salmon testes DNA, 50 uM zinc acetate, 200 nM TF, 25 C, 1 h; high values mean tight binding
# Experimental setup: protein: recombinant; tags: N-terminal polyhistidine and DsRed monomer fusion (pET32a); label: CyDye5-dUTP incorporated in the synthesized complementary strand; 3' TTTTT single-stranded linker to array surface; dsDNA, one strand shown
In all, about 68,000 sequences were measured (“fluorescence intensity (a.u.)”: median about 9,100, highest 2% from about 16,000 on). What follows is part of a selection rich in the highest values, with near analogues and random picks from the rest.
Assay readout: binding signal

Answered cases to consult:
monomer_sequence=GATCGTGGGAGGGAGGATTGGCCGGTTGTACTACAGTTGACGGAGTCACCTAGTGCAG measured_target="OsWRKY34 (Oryza sativa, UniProt Q0JBA9 1-250)" recorded_value="8660 fluorescence intensity (a.u.)"
monomer_sequence=ATCTCTTTTGCATTTGTTCGTCCCTTTCGTTTTCAACTTGCGGAGTCACCTAGTGCAG measured_target="OsWRKY34 (Oryza sativa, UniProt Q0JBA9 1-250)" recorded_value="9290 fluorescence intensity (a.u.)"
monomer_sequence=TTTTTTTCGGTCTCAATATTTTTTTTTCTCACGTCTTTCGCGGAGTCACCTAGTGCAG measured_target="OsWRKY34 (Oryza sativa, UniProt Q0JBA9 1-250)" recorded_value="10800 fluorescence intensity (a.u.)"
monomer_sequence=CCTTCGTCGACCCTCCGCCGCCGCCGCCGCCGCCGCCGACCGGAGTCACCTAGTGCAG measured_target="OsWRKY34 (Oryza sativa, UniProt Q0JBA9 1-250)" recorded_value="8660 fluorescence intensity (a.u.)"
monomer_sequence=CATCGATCGCACTAGTGTCGCTCTCTGGAAGTAATAGCCTCGGAGTCACCTAGTGCAG measured_target="OsWRKY34 (Oryza sativa, UniProt Q0JBA9 1-250)" recorded_value="8110 fluorescence intensity (a.u.)"

Value lookup for binding signal; key = ACTTTTAAACCCATGTTTTACCATTCATCTTAATAAAAAACGGAGTCACCTAGTGCAG 8840 fluorescence intensity (a.u.)

Can you check ACTCTTTACTCTTTCTTTTCTTCTTTCTTTTTTGGCGGGGCGGAGTCACCTAGTGCAG next? 21200 fluorescence intensity (a.u.)

Can you check TAGGCTGATGGGTCTTCATGCTTCGGTTCATCTTCGTCTCCGGAGTCACCTAGTGCAG next? 10200 fluorescence intensity (a.u.)

Can you check TTAATACTTACTACTTGTCTGCTTTGAGTTTTTTGTTTAACGGAGTCACCTAGTGCAG next? 9060 fluorescence intensity (a.u.)
